Attribution: patent US10597674B2

# System: HPPD polypeptides (wild-type SEQ ID NO:1 and mutants)
# CONDITION_SUMMARY: in the presence of Cmpd. 2, 15 μM inhibitor, high substrate concentration; total change in signal normalized to no inhibitor
VALUE_TYPE: Residual turnover (%)
Expressed in %, but write only the number.

8 (protein, mutant HPPD polypeptide) MADLYENPMGLMGFEFIEFASPTPGTLEPIFEIMGFTKVATHRSKNVHLYRQGEINLILNNEPNSIASYFAAEHGPSVCGMAFRVKDSQKAYNRALELGAQPIHIDTGPMELNLPAIKGIGGAPLYLIDRFGEGSSIYDIDFVYLEGVERNPVGAGLKVIDHLTHNVYRGRMVYWANFYEKLFNFREARYFDIKGEYTGLTSKAMSAPDGMIRIPLNEESSKGAGQIEEFLMQFNGEGIQHVAFLTDDLVKTWDALKKIGMRFMTAPPDTYYEMLEGRLPDHGEPVDQLQARGILLDGSSVEGDKRLLLQIFSETLMGPVFFEFIQRKGDDGFGPDSFKVLFESIERDQVRRGVLTAD ... 74

Next molecule, Residual turnover to be filled in.
# input Answer with reported Residual turnover of 16 (protein, mutant HPPD polypeptide) MADLYENPMGLMGFEFIEFASPTPGTLEPIFEIMGFTKVATHRSKNVHLYRQGEINLILNNEPNSIASYFAAEHGPSVCGMAFRVKDSQKAYNRALELGAQPIHIDTGPMELNLPAIKGIGGAPLYLIDRFGEGSSIYDIDFVYLEGVERNPVGAGLKVIDHLTHNVYRGRMVYWANFYEKLFNFREARYFDIKGEYTGLTSKAMSAPDGMIRIPLNEESSKGAGQIEEFLMQFNGEGIQHVAFLTDDLVKTWDALKKIGMRFMTAPSDSYYEMLEGRLPDHGEPVDQLQARGILLDGSSVEGDKRLLLQIFSETLMGPVFFEFIQRKGDDGFGPDSFKVLFESKERDQVRRGVLTAD
# output 94
